target: XRN1 (5’-3’ exoribonuclease 1) (Homo sapiens, UniProt Q8IZH2)
Sequence (Q8IZH2 1-1191): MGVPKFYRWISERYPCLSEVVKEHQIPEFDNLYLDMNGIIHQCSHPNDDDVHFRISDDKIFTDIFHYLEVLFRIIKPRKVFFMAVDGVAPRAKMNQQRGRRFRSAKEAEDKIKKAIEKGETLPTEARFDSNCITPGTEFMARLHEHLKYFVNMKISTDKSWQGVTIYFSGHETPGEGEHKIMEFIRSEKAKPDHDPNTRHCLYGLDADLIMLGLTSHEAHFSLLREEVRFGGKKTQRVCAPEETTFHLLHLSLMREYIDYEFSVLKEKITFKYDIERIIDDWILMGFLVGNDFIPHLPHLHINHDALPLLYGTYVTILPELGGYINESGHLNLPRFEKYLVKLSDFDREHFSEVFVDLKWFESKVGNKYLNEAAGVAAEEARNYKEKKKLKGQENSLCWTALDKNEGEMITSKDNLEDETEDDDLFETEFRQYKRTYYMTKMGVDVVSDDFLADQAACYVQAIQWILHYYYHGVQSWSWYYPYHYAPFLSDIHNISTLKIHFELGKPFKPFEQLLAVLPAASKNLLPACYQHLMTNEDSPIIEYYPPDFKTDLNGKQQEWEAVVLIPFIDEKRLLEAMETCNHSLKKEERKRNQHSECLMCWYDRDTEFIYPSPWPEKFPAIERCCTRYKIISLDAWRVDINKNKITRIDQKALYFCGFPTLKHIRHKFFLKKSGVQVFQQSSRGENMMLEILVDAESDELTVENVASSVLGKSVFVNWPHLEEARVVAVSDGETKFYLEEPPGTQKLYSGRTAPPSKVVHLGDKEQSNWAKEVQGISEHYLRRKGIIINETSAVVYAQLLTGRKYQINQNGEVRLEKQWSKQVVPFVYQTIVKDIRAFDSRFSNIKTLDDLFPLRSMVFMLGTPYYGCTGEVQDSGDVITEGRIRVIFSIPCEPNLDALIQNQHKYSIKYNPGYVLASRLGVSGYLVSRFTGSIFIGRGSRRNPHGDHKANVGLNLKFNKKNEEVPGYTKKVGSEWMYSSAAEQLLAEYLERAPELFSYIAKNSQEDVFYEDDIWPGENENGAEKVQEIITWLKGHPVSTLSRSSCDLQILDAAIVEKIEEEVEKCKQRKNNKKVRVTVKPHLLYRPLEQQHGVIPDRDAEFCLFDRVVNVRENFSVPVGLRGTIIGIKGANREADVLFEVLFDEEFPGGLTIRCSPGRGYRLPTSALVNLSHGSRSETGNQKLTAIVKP
metric_name: Kd (nM)
Provide the reading as a plain figure in nM.

In: Quick one: Kd for Nc1ncnc2c1ncn2[C@@H]1O[C@H](COP(=O)(O)O)[C@@H](OP(=O)(O)O)[C@H]1O [pAp, adenosine-3’,5’-bisphosphate] ?
Out: 12
